Cited source for all entries: ChEMBL document CHEMBL1165987

- System: A549
- Test: Cytotoxicity against human A549 cells after 24 hrs by SRB method
- Assay type: functional, cell-based
Calls of active or inactive are those of the source. The rule behind the calls is not given here.
Measurement Type: inhibition

Some entries whose results are on file:
{"Compound": "C/C=C/C=C/C(=O)N[C@H]1CCCNC(=O)[C@H](C)N(C)C(=O)[C@H](C(C)C)N(C)C1=O [SCLEROTIOTIDE B]", "Study System": "A549", "inhibition": "inactive"}
{"Compound": "CC(C)[C@H]1C(=O)N(C)[C@@H](C)C(=O)NCCC[C@H](NC(=O)/C=C/C=C/[C@@H](O)[C@@H](C)O)C(=O)N1C [SCLEROTIOTIDE I]", "Study System": "A549", "inhibition": "inactive"}
{"Compound": "C/C=C/C=C/C=C/C(=O)N[C@H]1CCCNC(=O)[C@H](C)NC(=O)[C@H](C(C)C)N(C)C1=O", "Study System": "A549", "inhibition": "inactive"}
{"Compound": "CC(C)[C@H]1C(=O)N(C)[C@@H](C)C(=O)NCCC[C@H](NC(=O)/C=C/C=C/C=O)C(=O)N1C [SCLEROTIOTIDE F]", "Study System": "A549", "inhibition": "inactive"}

Turning now to a further compound:
### Prompt Dear colleague, I am looking for the recorded inhibition of the following compound: C/C=C/C=C/C=C/C(=O)N[C@H]1CCCNC(=O)[C@H](C)N(C)C(=O)[C@H](C(C)C)NC1=O [SCLEROTIOTIDE A]
### Response inactive
